The reported measurements were obtained from patent US20200325177A1.

- Test system: S. aureus
- Measurement notes: MIC, Gram-positive bacteria: S. aureus (strains not named)
- Format: cell-based
- Run conditions: Staphylococcus aureus, third unnamed S. aureus column (c7), read-out: Minimal Inhibitory Concentration (MIC) S. aureus
Attribute measured: MIC (µg/mL)
Give the value in µg/mL but do not write µg/mL after it.

Past entries and their recorded results:
{"Smiles string": "CC1=C\\[C@@H](O)CC(=O)Cc2nc(co2)C(=O)N2CCC[C@@H]2C(=O)O[C@H]([C@H](C)COC(=O)Nc2ccc(C(F)(F)F)cc2)[C@H](C)/C=C/C(=O)NC\\C=C\\1", "Result": 16}
{"Smiles string": "CC1=C\\[C@@H](O)C[C@@H](O)Cc2nc(cs2)C(=O)N2CCC[C@@H]2C(=O)O[C@H](C(C)C)[C@H](C)/C=C/C(=O)NC\\C=C\\1", "Result": 16}

Okay, next one:
// lookup MIC for CC1=C\[C@@H](O)C[C@@H](F)Cc2nc(cs2)C(=O)N2CCC[C@@H]2C(=O)O[C@H](C(C)C)[C@H](C)/C=C/C(=O)NC\C=C\1
1
